target: T1, cynomolgus monkey GPRC5D (cynomolgus monkey); experiment: FACS, HEK293T-cynoGPRC5D cells; also: test concentration or dose not given here
T1 construct: whole, on cells; HEK293T-cynoGPRC5D cells; also called cynoGPRC5D
PROPERTY_NAME: % Positive

I am curious: what % Positive value has been reported for 20C4E1 (antibody, V domains shown, Mouse monoclonal antibody from hybridoma subclone) VH: EVRLVESGGALVRPGGSLKLSCAASGFTFSDYGMHWVRQAPEKGLEWIAFISSVSFTIYYADTVKGRFTISRDNAKNTLFLQMTSLRSEDTALYYCTRLGPHWYFDVWGTGTTVTVSS VL: DVVLTQTPLSLPVSLGDQASISCRSSQSLVYSNGNTYLHWFLQKPGQSPQLLIYKVSNRFSGVPDRFSGSGSGTDFTLKISRVEAEDLGVYFCSQSTPVPTFGGGTKLEIK ? 99.2%

I am curious: what % Positive value has been reported for 28H9C12 (antibody, V domains shown, Mouse monoclonal antibody from hybridoma subclone; also called 281H9C12) VH: EVQLVESGGGLVKPGGSLKLSCAASGFTFSDYGMHWVRQAPEKGLEWVAYISSGSSTIYYADTVKGRFTISRDNAKNTLFLQMTSLRSEDTAIYYCVRRPWYFDVWGTGTTVTVSS VL: DVLMTQTPLSLPVSLGDQASISCRSSQSIVHSNGNTYLQWYLQKPGQSPKLLIYKVSNRFSGVPDRFSGSGSGTDFTLKISRLEAEDLGVYYCFQGSHVPFTFGSGTKLEIK ? 99.8%

I am curious: what % Positive value has been reported for 26E2H6 (antibody, V domains shown, Mouse monoclonal antibody from hybridoma subclone) VH: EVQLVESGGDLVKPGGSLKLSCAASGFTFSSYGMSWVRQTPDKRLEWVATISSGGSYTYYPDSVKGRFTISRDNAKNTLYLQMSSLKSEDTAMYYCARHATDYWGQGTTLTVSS VL: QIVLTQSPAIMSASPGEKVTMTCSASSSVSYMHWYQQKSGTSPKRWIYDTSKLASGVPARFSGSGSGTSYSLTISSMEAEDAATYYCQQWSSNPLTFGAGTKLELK ? 1%

I am curious: what % Positive value has been reported for 36A3G8 (antibody, V domains shown, Mouse monoclonal antibody from hybridoma subclone) VH: QVQLQQSGAELARPGASVKMSCKASGYTFTTYTMHWIKQRPGQDLEWIGFINPSSGYTKYNQNFKDKATLTADKSSTTAYMQLNSLTSEDSAVYYCASPYGNIYFDVWGTGTTVTVSS VL: DIVMTQSQKFMSTAVGDRVSITCKASQNVGTAVAWYQQKPGQSPKLLIYSASNRYTGVPDRFTGSGSGTDFTLTISNMQSEDLADYFCQQYSSYPLTFGAGTKLELK ? 96.6%
